Data provenance: patent US8247211B2

Test system: Staphylococcus sp.
test_details: In vitro antibacterial evaluation: minimum inhibitory concentration (MIC), broth dilution method
Type: cell-based
applied_conditions: broth dilution, 5×10^5 CFU/mL, 18 hours at 35° C.
Entries whose MIC Staphylococcus aureus-SMITH (GC 4543) is below 2 µg/mL take Condition met; entries at or above 2 µg/mL take Condition not met.

Q. # TODO verify MIC Staphylococcus aureus-SMITH (GC 4543) < 2 µg/mL strictly for this compound: CSc1ccc(C2OCC3OC(OC4C(CO)OC(Oc5ccc(CC6NC(=O)C(C(C)c7ccccc7)NC(=O)CNC(=O)C(CO)NC(=O)C(C(O)C7CNC(=N)N7C7OC(CO)C(O)C(O)C7O)NC(=O)C(C(O)C7CNC(=N)N7)NC6=O)cc5)C(O)C4O)C(O)C(O)C3O2)cc1 (centres unmarked)
A. Condition met

Q. # TODO verify MIC Staphylococcus aureus-SMITH (GC 4543) < 2 µg/mL strictly for this compound: CCOc1cc(C2OCC3OC(OC4C(CO)OC(Oc5ccc(CC6NC(=O)C(C(C)c7ccccc7)NC(=O)CNC(=O)C(CO)NC(=O)C(C(O)C7CNC(=N)N7C7OC(CO)C(O)C(O)C7O)NC(=O)C(C(O)C7CNC(=N)N7)NC6=O)cc5)C(O)C4O)C(O)C(O)C3O2)ccc1[N+](=O)[O-] (centres unmarked)
A. Condition not met

Q. # TODO verify MIC Staphylococcus aureus-SMITH (GC 4543) < 2 µg/mL strictly for this compound: CC(c1ccccc1)C1NC(=O)CNC(=O)C(CO)NC(=O)C(C(O)C2CNC(=N)N2C2OC(CO)C(O)C(O)C2O)NC(=O)C(C(O)C2CNC(=N)N2)NC(=O)C(Cc2ccc(OC3OC(CO)C(OC4OC5COC(c6ccsc6)OC5C(O)C4O)C(O)C3O)cc2)NC1=O (centres unmarked)
A. Condition met

Q. # TODO verify MIC Staphylococcus aureus-SMITH (GC 4543) < 2 µg/mL strictly for this compound: CC(c1ccccc1)C1NC(=O)CNC(=O)C(CO)NC(=O)C(C(O)C2CNC(=N)N2C2OC(CO)C(O)C(O)C2O)NC(=O)C(C(O)C2CNC(=N)N2)NC(=O)C(Cc2ccc(OC3OC(CO)C(OC4OC5COC(c6ccc(C(=O)c7ccccc7)cc6)OC5C(O)C4O)C(O)C3O)cc2)NC1=O (centres unmarked)
A. Condition met

Q. # TODO verify MIC Staphylococcus aureus-SMITH (GC 4543) < 2 µg/mL strictly for this compound: COc1cccc(C2OC3C(OC4C(CO)OC(Oc5ccc(CC6NC(=O)C(C(C)c7ccccc7)NC(=O)CNC(=O)C(CO)NC(=O)C(C(O)C7CNC(=N)N7C7OC(CO)C(O)C(O)C7O)NC(=O)C(C(O)C7CNC(=N)N7)NC6=O)cc5)C(O)C4O)OC(CO)C(O)C3O2)c1 (single isomer, unassigned) [Example 137b]
A. Condition not met

Q. # TODO verify MIC Staphylococcus aureus-SMITH (GC 4543) < 2 µg/mL strictly for this compound: COC1CCC2(C)C(CCC3C2CCC2(C)C(C(C)CCC4OCC5OC(OC6C(CO)OC(Oc7ccc(CC8NC(=O)C(C(C)c9ccccc9)NC(=O)CNC(=O)C(CO)NC(=O)C(C(O)C9CNC(=N)N9C9OC(CO)C(O)C(O)C9O)NC(=O)C(C(O)C9CNC(=N)N9)NC8=O)cc7)C(O)C6O)C(O)C(O)C5O4)CCC32)C1 (centres unmarked)
A. Condition not met

Q. # TODO verify MIC Staphylococcus aureus-SMITH (GC 4543) < 2 µg/mL strictly for this compound: CC(c1ccccc1)C1NC(=O)CNC(=O)C(CO)NC(=O)C(C(O)C2CNC(=N)N2C2OC(CO)C(O)C(O)C2O)NC(=O)C(C(O)C2CNC(=N)N2)NC(=O)C(Cc2ccc(OC3OC(CO)C(OC4OC5COC(c6ccc(-c7ccsc7)cc6)OC5C(O)C4O)C(O)C3O)cc2)NC1=O (centres unmarked)
A. Condition not met

Q. # TODO verify MIC Staphylococcus aureus-SMITH (GC 4543) < 2 µg/mL strictly for this compound: CC(c1ccccc1)C1NC(=O)CNC(=O)C(CO)NC(=O)C(C(O)C2CNC(=N)N2C2OC(CO)C(O)C(O)C2O)NC(=O)C(C(O)C2CNC(=N)N2)NC(=O)C(Cc2ccc(OC3OC(CO)C(OC4OC5COC(c6ccc(-c7cccs7)cc6)OC5C(O)C4O)C(O)C3O)cc2)NC1=O (centres unmarked)
A. Condition met

Q. # TODO verify MIC Staphylococcus aureus-SMITH (GC 4543) < 2 µg/mL strictly for this compound: CC(c1ccccc1)C1NC(=O)CNC(=O)C(CO)NC(=O)C(C(O)C2CNC(=N)N2C2OC(CO)C(O)C(O)C2O)NC(=O)C(C(O)C2CNC(=N)N2)NC(=O)C(Cc2ccc(OC3OC(CO)C(OC4OC5COC(c6ccc(S(C)(=O)=O)cc6)OC5C(O)C4O)C(O)C3O)cc2)NC1=O (centres unmarked)
A. Condition not met

Q. # TODO verify MIC Staphylococcus aureus-SMITH (GC 4543) < 2 µg/mL strictly for this compound: CC(c1ccccc1)C1NC(=O)CNC(=O)C(CO)NC(=O)C(C(O)C2CNC(=N)N2C2OC(CO)C(O)C(O)C2O)NC(=O)C(C(O)C2CNC(=N)N2)NC(=O)C(Cc2ccc(OC3OC(CO)C(OC4OC(CO)C(O)C5OC(c6ccc(-c7ccsc7)cc6)OC45)C(O)C3O)cc2)NC1=O (centres unmarked) [Example 164a]
A. Condition not met

Q. # TODO verify MIC Staphylococcus aureus-SMITH (GC 4543) < 2 µg/mL strictly for this compound: CC(c1ccccc1)C1NC(=O)CNC(=O)C(CO)NC(=O)C(C(O)C2CNC(=N)N2C2OC(CO)C(O)C(O)C2O)NC(=O)C(C(O)C2CNC(=N)N2)NC(=O)C(Cc2ccc(OC3OC(CO)C(OC4OC5COC(c6ccc(C(=O)O)cc6)OC5C(O)C4O)C(O)C3O)cc2)NC1=O (centres unmarked)
A. Condition not met
